Experiment: qHTS of Nrf2 Activators; note: nearly all actives have a fitted effect of over 65% in size
Conditions: AREc32 ARE-luciferase reporter (MCF7-derived line), luminescence, 24 h; series mostly up to 46.1 µM
Hit rate of the full screen: of about 410,000 compounds, about 1,200 (0.29%) were called active. Not shown: some 2% with an inconclusive outcome. Calls come from the whole dose curve; as a rule, active = well fitted activation curve with a large enough effect; inconclusive = small, poorly fitted or top-dose-only effect; inactive = flat fitted curve, though single readings scatter. Many of the other results were omitted from the sample, so actives are more common in it than they were.
Just give me one of these, please: active, inactive

molecule	qualitative-label
NC(=O)COC(=O)/C=C/c1ccc2ccccc2n1	active
Cc1ccc2c(N)c(C(=O)c3ccccc3)sc2n1	active
O=C(COc1ccccc1F)OCc1cc(=O)n2nc(C3CCCCC3)sc2n1	inactive
COc1cc(NC(=O)c2cc(C3CC3)nc3c2c(C)nn3-c2ccccc2)cc(OC)c1	inactive
C#CCSc1nnc(-c2sc3ccccc3c2Cl)o1	active
O=C(NCCc1csc(-c2ccc(C(F)(F)F)cc2)n1)C(=O)Nc1ccc(F)c(Cl)c1	inactive

Inquiry: In this assay, the call recorded for "CCOc1cccc(/C=C/c2ccc3ccccc3n2)c1OC(C)=O" was what?
Reply text: inactive

Inquiry: One more molecule: "COc1ccc2c(Cl)c(-c3nnco3)sc2c1"
Reply text: inactive

Inquiry: One more molecule: Cc1cccc(NC(c2cccc(F)c2)c2ccc3ccc(C)nc3c2O)n1 (stereo unspecified)
Reply text: inactive

Inquiry: One more molecule: "COc1ccc(NC(=O)c2sc3nc(-c4cc5cccc(OC)c5oc4=O)[nH]c(=O)c3c2C)cc1"
Reply text: inactive

Inquiry: One more molecule: "O=C(OCC#CCSc1nnc(-c2ccncc2)o1)c1sc2ccccc2c1Cl"
Reply text: inactive
